Each recorded value in this set is attributed to patent US20250388602A1.

Items are presented alongside their recorded half-life at 1 μM.
# testProtocol: in vitro
# details: human, hepatocytes
All answers are understood in min, so give the number only.

# example entries with known answers
>>> reportedvalue("O=C(N[C@@H]1COCc2c1cnn2-c1ccccc1F)c1n[nH]c2c1CCCC2 [Ex-42]")
326
>>> reportedvalue("CCc1c(C(=O)N[C@@H]2COCc3c2cnn3-c2ccccc2F)n[nH]c1C [Ex-44]")
561
>>> reportedvalue("O=C(N[C@@H]1COCc2c1cnn2-c1ccccc1F)c1ncc2n1CCCC2 (single isomer, unassigned) [Ex-6]")
294

Consider the molecule Cc1cnc(C(=O)N[C@@H]2COCc3c2cnn3-c2ccccc2F)cc1C [Ex-45] and give its recorded half-life at 1 μM.
286

Consider the molecule Cc1cnc(C(=O)N[C@@H]2COCc3c2cnn3-c2c(F)cccc2Cl)cc1C [Ex-48] and give its recorded half-life at 1 μM.
358

Consider the molecule CC(C)OC(=O)c1cccc(-n2ncc3c2COC[C@H]3NC(=O)c2ncn3c2CCCC3)c1Cl [Ex-69] and give its recorded half-life at 1 μM.
4.6

Consider the molecule O=C(N[C@@H]1COCc2c1cnn2-c1c(F)cccc1Cl)c1ncc2n1CCCC2 [Ex-47] and give its recorded half-life at 1 μM.
540

Consider the molecule O=C(N[C@@H]1COCc2c1cnn2-c1ccccc1F)c1ncn2c1CCCC2 (single isomer, unassigned) [Ex-3] and give its recorded half-life at 1 μM.
598
